FYI, the data here is from patent US20200323823A1.

experiment: Randomized, double-blind, placebo-controlled multiple escalating dose study, plasma PK of Compound 1 oral suspension (Cohorts 1-3); conditions: human, plasma, po, 60 mg, Vz/F, Cohort 3, 60.0 mg QD oral, Day 14, Median
outcomeMeasure: Vd/F (L)
Supply the numeric figure in L, leaving out any unit text.

Request: Give the reported Vd/F for this compound. COC[C@@]1(O)CC[C@@]2(C)[C@@H](CC[C@@H]3[C@@H]2CC[C@]2(C)[C@@H](C(=O)Cn4ccnc4)CC[C@@H]32)C1 [Compound 1]
Result: 531

---

assay: Randomized, double-blind, placebo-controlled multiple escalating dose study, plasma PK of Compound 1 oral suspension (Cohorts 1-3); conditions: human, plasma, po, 30 mg, t1/2, Cohort 2, 30.0 mg QD oral, Day 14, Median
outcomeMeasure: half-life
Lab note: write values as number then unit, every time.

Request: Give the reported half-life for this compound. COC[C@@]1(O)CC[C@@]2(C)[C@@H](CC[C@@H]3[C@@H]2CC[C@]2(C)[C@@H](C(=O)Cn4ccnc4)CC[C@@H]32)C1 [Compound 1]
Result: 12.9 h

---

experiment: clinical; conditions: human, in vivo, po, 60 mg, AUC0-tau
outcomeMeasure: AUC (ng·h/mL)
Supply the numeric figure in ng·h/mL, leaving out any unit text.

Request: Give the reported AUC for this compound. COC[C@@]1(O)CC[C@@]2(C)[C@@H](CC[C@@H]3[C@@H]2CC[C@]2(C)[C@@H](C(=O)Cn4ccnc4)CC[C@@H]32)C1 [Compound 1]
Result: 2340

---

assay: clinical; conditions: human, in vivo, po, 15 mg, Cmax, ss
outcomeMeasure: Cmax (ng/mL)
Supply the numeric figure in ng/mL, leaving out any unit text.

Request: Give the reported Cmax for this compound. COC[C@@]1(O)CC[C@@]2(C)[C@@H](CC[C@@H]3[C@@H]2CC[C@]2(C)[C@@H](C(=O)Cn4ccnc4)CC[C@@H]32)C1
Result: 65

---

assay: clinical; settings: human, in vivo, po, 30 mg, AUC0-tau
outcomeMeasure: AUC (ng·h/mL)
Supply the numeric figure in ng·h/mL, leaving out any unit text.

Request: Give the reported AUC for this compound. COC[C@@]1(O)CC[C@@]2(C)[C@@H](CC[C@@H]3[C@@H]2CC[C@]2(C)[C@@H](C(=O)Cn4ccnc4)CC[C@@H]32)C1
Result: 842

---

experiment: Randomized, double-blind, placebo-controlled multiple escalating dose study, plasma PK of Compound 1 oral suspension (Cohorts 1-3); conditions: human, plasma, po, 15 mg, Vz/F, Cohort 1, 15.0 mg QD oral, Day 14, Median
outcomeMeasure: Vd/F (L)
Supply the numeric figure in L, leaving out any unit text.

Request: Give the reported Vd/F for this compound. COC[C@@]1(O)CC[C@@]2(C)[C@@H](CC[C@@H]3[C@@H]2CC[C@]2(C)[C@@H](C(=O)Cn4ccnc4)CC[C@@H]32)C1 [Compound 1]
Result: 657

---

assay: clinical; settings: human, in vivo, po, 30 mg, Cmax
outcomeMeasure: Cmax (ng/mL)
Supply the numeric figure in ng/mL, leaving out any unit text.

Request: Give the reported Cmax for this molecule. COC[C@@]1(O)CC[C@@]2(C)[C@@H](CC[C@@H]3[C@@H]2CC[C@]2(C)[C@@H](C(=O)Cn4ccnc4)CC[C@@H]32)C1
Result: 133

---

assay: clinical; conditions: human, in vivo, po, 60 mg, Tmax
outcomeMeasure: Tmax (h)
Supply the numeric figure in h, leaving out any unit text.

Request: Give the reported Tmax for this molecule. COC[C@@]1(O)CC[C@@]2(C)[C@@H](CC[C@@H]3[C@@H]2CC[C@]2(C)[C@@H](C(=O)Cn4ccnc4)CC[C@@H]32)C1 [Compound 1]
Result: 1.14

---

experiment: Randomized, double-blind, placebo-controlled multiple escalating dose study, plasma PK of Compound 1 oral suspension (Cohorts 1-3); details: human, plasma, po, 60 mg, Vz/F, Cohort 3, 60.0 mg QD oral, Day 14, Mean
outcomeMeasure: Vd/F (L)
Supply the numeric figure in L, leaving out any unit text.

Request: Give the reported Vd/F for this compound. COC[C@@]1(O)CC[C@@]2(C)[C@@H](CC[C@@H]3[C@@H]2CC[C@]2(C)[C@@H](C(=O)Cn4ccnc4)CC[C@@H]32)C1
Result: 574

---

assay: clinical; details: human, in vivo, po, 60 mg, Cmax
outcomeMeasure: Cmax (µg/mL)
Supply the numeric figure in µg/mL, leaving out any unit text.

Request: Give the reported Cmax for this compound. COC[C@@]1(O)CC[C@@]2(C)[C@@H](CC[C@@H]3[C@@H]2CC[C@]2(C)[C@@H](C(=O)Cn4ccnc4)CC[C@@H]32)C1 [Compound 1]
Result: 0.364

---

experiment: Randomized, double-blind, placebo-controlled multiple escalating dose study, plasma PK of Compound 1 oral suspension (Cohorts 1-3); conditions: human, plasma, po, 30 mg, Vz/F, Cohort 2, 30.0 mg QD oral, Day 14, Median
outcomeMeasure: Vd/F (L)
Supply the numeric figure in L, leaving out any unit text.

Request: Give the reported Vd/F for this compound. COC[C@@]1(O)CC[C@@]2(C)[C@@H](CC[C@@H]3[C@@H]2CC[C@]2(C)[C@@H](C(=O)Cn4ccnc4)CC[C@@H]32)C1 [Compound 1]
Result: 514

---

experiment: clinical; conditions: human, in vivo, po, 15 mg, AUCinf
outcomeMeasure: AUC(0-inf) (ng·h/mL)
Supply the numeric figure in ng·h/mL, leaving out any unit text.

Request: Give the reported AUC(0-inf) for this compound. COC[C@@]1(O)CC[C@@]2(C)[C@@H](CC[C@@H]3[C@@H]2CC[C@]2(C)[C@@H](C(=O)Cn4ccnc4)CC[C@@H]32)C1
Result: 600

---

experiment: Randomized, double-blind, placebo-controlled multiple escalating dose study, plasma PK of Compound 1 oral suspension (Cohorts 1-3); conditions: human, plasma, po, 30 mg, t1/2, Cohort 2, 30.0 mg QD oral, Day 14, Mean
outcomeMeasure: half-life
Lab note: write values as number then unit, every time.

Request: Give the reported half-life for this molecule. COC[C@@]1(O)CC[C@@]2(C)[C@@H](CC[C@@H]3[C@@H]2CC[C@]2(C)[C@@H](C(=O)Cn4ccnc4)CC[C@@H]32)C1
Result: 12.7 h

---

assay: clinical; conditions: human, in vivo, po, 30 mg, Cmax, ss
outcomeMeasure: Cmax
Lab note: write values as number then unit, every time.

Request: Give the reported Cmax for this compound. COC[C@@]1(O)CC[C@@]2(C)[C@@H](CC[C@@H]3[C@@H]2CC[C@]2(C)[C@@H](C(=O)Cn4ccnc4)CC[C@@H]32)C1
Result: 164 ng/mL

---

assay: Randomized, double-blind, placebo-controlled multiple escalating dose study, plasma PK of Compound 1 oral suspension (Cohorts 1-3); conditions: human, plasma, po, 15 mg, Vz/F, Cohort 1, 15.0 mg QD oral, Day 14, Mean
outcomeMeasure: Vd/F (L)
Supply the numeric figure in L, leaving out any unit text.

Request: Give the reported Vd/F for this compound. COC[C@@]1(O)CC[C@@]2(C)[C@@H](CC[C@@H]3[C@@H]2CC[C@]2(C)[C@@H](C(=O)Cn4ccnc4)CC[C@@H]32)C1 [Compound 1]
Result: 655

---

test: clinical; details: human, in vivo, po, 60 mg, AUCinf
outcomeMeasure: AUC(0-inf)

Request: Give the reported AUC(0-inf) for this compound. COC[C@@]1(O)CC[C@@]2(C)[C@@H](CC[C@@H]3[C@@H]2CC[C@]2(C)[C@@H](C(=O)Cn4ccnc4)CC[C@@H]32)C1
Result: 2370 ng·h/mL

---

experiment: clinical; conditions: human, in vivo, po, 60 mg, Tmax, ss
outcomeMeasure: Tmax (min)
Supply the numeric figure in min, leaving out any unit text.

Request: Give the reported Tmax for this compound. COC[C@@]1(O)CC[C@@]2(C)[C@@H](CC[C@@H]3[C@@H]2CC[C@]2(C)[C@@H](C(=O)Cn4ccnc4)CC[C@@H]32)C1
Result: 58.1
